# System: Trichophyton mentagrophytes 445
# Experiment summary: In vitro antifungal susceptibility testing (broth microdilution)
# Format: cell-based
# Settings: 72h, M38-A for moulds, IC50 value, read-out: MIC TM
Note to self: use Fulfilled only for MIC readings below 100 µM; a reading exactly at 100 µM still gets Not fulfilled.

Please review the entries below; each comes with its answer.
Compound	Classification
O=C(N[C@H](Cc1ccccc1)C(=O)Nc1ccc(Br)cc1)c1cc(Cl)ccc1O [8v]	Not fulfilled
CC(C)[C@@H](NC(=O)c1ccc(Cl)cc1O)C(=O)Nc1ccc(Cl)cc1 [9d]	Fulfilled
C[C@@H](NC(=O)c1cc(Cl)ccc1O)C(=O)Nc1cccc(Cl)c1 [8c]	Fulfilled

MIC strictly < 100 µM for this compound? O=C(N[C@@H](Cc1ccccc1)C(=O)Nc1ccc(Cl)c(Cl)c1)c1cc(Cl)ccc1O [8q] Not fulfilled

MIC strictly < 100 µM for this compound? O=C(N[C@H](Cc1ccccc1)C(=O)Nc1cccc(Cl)c1)c1cc(Cl)ccc1O [8g] Not fulfilled

MIC strictly < 100 µM for this compound? CC(C)[C@H](NC(=O)c1ccc(Cl)cc1O)C(=O)Nc1ccc(Cl)cc1 [9c] Not fulfilled

MIC strictly < 100 µM for this compound? CC(C)[C@H](NC(=O)c1cc(Cl)ccc1O)C(=O)Nc1ccc(Cl)cc1 [8i] Not fulfilled

MIC strictly < 100 µM for this compound? OC(Cn1cncn1)(Cn1cncn1)c1ccc(F)cc1F [FLU, fluconazole, reference compound] Fulfilled
